Parameter: cell event count. Scope: all listed entries.
# Method: LNCaP cell loss by flow event count, confirmation, cytotoxicity control for prostate differentiation activator project, single point (AID 1076);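 further: counts scatter-gated live cells after medium removal discards detached dead cells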
# Measurement context: flow cytometry event count, 4 d, at 100 µM, stronger effect = lower value
Active and inactive are the calls of the source.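 How the source made its calls: active means cell event count below 40, meaning activity score above 60 where score is 100 minus count; inactive means the rest.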

| Molecule | cell event count |
| --- | --- |
| CCN(CC)CCCNc1oc(-c2cccc(Cl)c2)nc1C#N | 32 (inactive) |
| CCN(CCNC(=O)C1CCN(Cc2nc(-c3ccc(Cl)cc3)oc2C)CC1)c1ccccc1 | 24 (inactive) |
| CCN1C=C(Cc2cccs2)C2=C(C1)C(c1cccs1)C(C#N)=C(N)O2 (stereo not drawn) | 40 (inactive) |

---

# Method: LNCaP cell loss by flow event count, confirmation, cytotoxicity control for prostate differentiation activator project, single point (AID 1076);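 further: counts scatter-gated live cells after medium removal discards detached dead cells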
# Measurement context: flow cytometry event count, 4 d, at 100 µM, stronger effect = lower value
Class boundaries, taken from values of cell event count, are as follows: lower level = under 20, middle level = from 20 up to 100, upper level = 100 and over

| Molecule | Classification |
| --- | --- |
| Cc1ccccc1Cn1cnc2c(cnn2C(C)(C)C)c1=O | lower level |
| Cc1ccccc1-c1nc(CN2CCC(C(=O)NCCCN3CCOCC3)CC2)c(C)o1 | middle level |
| COc1ccc(CCNC(=O)C2CCN(Cc3nc(-c4cccc(Cl)c4)oc3C)CC2)cc1OC | middle level |
| CCOC(=O)N1CCC(NC(=O)c2cc3c(-c4cccc(OC)c4)nn(C)c3s2)CC1 | upper level |
| O=C(Nc1nc(-c2ccccc2)cs1)C1CCCCN1S(=O)(=O)c1ccccc1 (configuration not stated) | upper level |
| Cn1nc(-c2ccc(Cl)cc2)c2cc(C(=O)NCCCN3CCCC3)sc21 | lower level |
| COc1ccc(CCN2CCC(Nc3nc4ccccc4n3Cc3ccc(F)cc3)CC2)cc1 | lower level |
| Cc1oc(-c2ccc(Cl)cc2)nc1CN1CCC(C(=O)NCCCN2CCOCC2)CC1 | lower level |
| CN(C)c1ccc(-c2nn3c(-c4ccc(Cl)cc4Cl)nnc3s2)cc1 | lower level |
| O=C(CCNC(=O)Cn1ccc2ccccc2c1=O)NCCCN1CCN(c2ccc(F)cc2)CC1 | upper level |
| Cc1ccccc1CS(=O)(=O)CCC(=O)NCCCN1CCN(c2ccccc2F)CC1 | upper level |
| O=C(CCN1C(=O)COc2ccccc21)NCCCN1CCN(c2ccccc2F)CC1 | upper level |
| COc1ccc(CCn2c(=N)c(C(=O)NCc3ccco3)cc3c(=O)n4ccccc4nc32)cc1 | middle level |
| COc1ccc(-n2c(C)nc3c(cnn3-c3ccc(Cl)cc3)c2=O)cc1 | middle level |
| c1ccc(CSc2nnc(-c3cccs3)n2Cc2ccco2)cc1 | middle level |
| CN(C)CCCN1c2ccccc2CCc2ccc(Cl)cc21 | middle level |
| Cc1ccc(-c2noc(CCC(=O)NCCCN3CCN(c4ccc(F)cc4)CC3)n2)cc1 | lower level |
| CCOC(=O)c1[nH]c(C)c(C(=O)N2CCc3ccccc32)c1C | lower level |
| Cc1ccc2[nH]c(=O)c3cc(C(=O)N(C)Cc4ccco4)sc3c2c1 | middle level |
| O=C(O)C1CCCCC1C(=O)Nc1cnn(Cc2ccccc2)c1 (configuration not stated) | middle level |
| CCOC(=O)N1CCN(CC(=O)Nc2cc(C)nn2-c2nc3ccccc3s2)CC1 | upper level |
| COc1ccc(N2CCN(CCCNC(=O)C3(S(=O)(=O)c4ccc(Cl)cc4)CC3)CC2)cc1 | middle level |
| Nc1cccc2cnccc12 | upper level |
| Cn1c(=O)n(C)c2cc(CN3C(=O)OC(C)(C)C3(C)O)ccc21 (configuration not stated) | upper level |
| CCCS(=O)(=O)N1CCCC(C(=O)NCCCN2CCN(c3ccccc3F)CC2)C1 (configuration not stated) | upper level |
| CCN(CC)CC(=O)Nc1ccc(-c2nc3cc(NC(=O)CN(CC)CC)ccc3o2)cc1 | lower level |
| CCc1ccc(-c2nc(CN3CCCC(C(=O)NCCc4ccc(OC)c(OC)c4)C3)c(C)o2)cc1 (configuration not stated) | lower level |
| CCOC(=O)C1=C(C)N=c2s/c(=C\c3ccncc3)c(=O)n2C1c1ccc2c(c1)OCO2 (configuration not stated) | lower level |
| CCCOc1ccc2nc(NC(=O)OC)[nH]c2c1 | lower level |
| CC1CCCCN1CCNC(=O)c1ccc2c(=O)n(CCc3ccccc3)c(=O)[nH]c2c1 (configuration not stated) | upper level |
| O=C(NCCCN1CCOCC1)c1cc2c(s1)CSC2 | upper level |
| COc1cc2nc(N3CCN(C(=O)C4COc5ccccc5O4)CC3)nc(N)c2cc1OC (configuration not stated) | lower level |

From: PubChem BioAssay AID1076
